Hey, just so you know, these numbers are from the RNAGym collection of RNA variant scans (doi:10.7554/elife.80360).

B1: CPEB3 Ribozyme (parent)
chain: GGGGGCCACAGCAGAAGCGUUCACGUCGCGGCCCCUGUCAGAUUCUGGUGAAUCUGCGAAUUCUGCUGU

- Variants of: B1
- EXPERIMENT SUMMARY: self-cleavage, relative activity (ratio to wild type); higher = more cleavage; co-transcriptional
Attribute: self-cleavage
EXPERIMENTAL READOUT: self-cleavage

MUTANT CODE	EXPERIMENTAL READOUT	ASSAY RESULT
G28A U55G	self-cleavage	0.167
U36A U43C	self-cleavage	0.186
U26A G41U	self-cleavage	0.67
C57U A59C	self-cleavage	0.376
G19A U69C	self-cleavage	0.333
U53C C54U	self-cleavage	0.819
C6A A59U	self-cleavage	0.202
A13G A15U	self-cleavage	0.547
C57G U69G	self-cleavage	0.473
C39U C57G	self-cleavage	0.403
A40U G56U	self-cleavage	0.552
U49G U67C	self-cleavage	0.964
G17C U69C	self-cleavage	0.284
C24A U36C	self-cleavage	0.27
C33U A60C	self-cleavage	0.319
U21G C29A	self-cleavage	0.242
C22G C27G	self-cleavage	0.16
A8C C29G	self-cleavage	0.0981
C7G G14A	self-cleavage	0.0844
C29A G56C	self-cleavage	0.297
G2U A10U	self-cleavage	0.138
A16G U64C	self-cleavage	0.513
